I'd appreciate it if you could supply log10 of IC50 values for the items below.
molecular target: GPR7 (Homo sapiens); construct: expressed in transfected cells; host or cells: HEK293/CRE-BLA cells (AURORA), expression vector pIRES-hygro (Clontech); assay: Binding inhibition test with [125I]-[Phe2]-hNPW(1-23), GPR7 membrane preparation; details: Table 2, membrane preparation of cells expressing GPR7
Sequence (P48145 whole entry): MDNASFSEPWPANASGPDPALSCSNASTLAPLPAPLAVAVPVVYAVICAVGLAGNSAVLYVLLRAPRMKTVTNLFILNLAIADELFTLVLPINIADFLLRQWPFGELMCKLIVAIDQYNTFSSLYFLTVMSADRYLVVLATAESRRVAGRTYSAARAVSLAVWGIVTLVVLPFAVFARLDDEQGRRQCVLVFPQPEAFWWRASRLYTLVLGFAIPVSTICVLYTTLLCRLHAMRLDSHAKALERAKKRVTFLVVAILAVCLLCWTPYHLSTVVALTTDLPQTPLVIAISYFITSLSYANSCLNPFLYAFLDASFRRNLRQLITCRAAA
Non-standard residues stand in square brackets, D forms with d. Residues, ends and D or L forms follow the SMILES beside them. 3Abz = Nc1cccc(C(=O)O)c1; 4Abz = Nc1ccc(C(=O)O)cc1; 2Abz = Nc1ccccc1C(=O)O; Ava = NCCCCC(=O)O
For clarity, the numbers are log10 values of IC50 expressed in nM.

Record CC(C)C[C@H](NC(=O)CNC(=O)[C@H](CO)NC(=O)[C@H](CC(C)C)NC(=O)[C@H](CC(C)C)NC(=O)CNC(=O)[C@H](C)NC(=O)[C@H](C)NC(=O)[C@H](CCCNC(=N)N)NC(=O)CNC(=O)c1cccc(NC(=O)CCCCNC(=O)CCCCNC(=O)[C@H](CCCCN)NC(=O)[C@H](Cc2ccc(O)cc2)NC(=O)[C@@H](N)Cc2c[nH]c3ccccc23)c1)C(N)=O [compound 11] (H-WYK[Ava][Ava][3Abz]GRAAGLLSGL-NH2) , field log10 of IC50: -0.43

Record CC(C)C[C@H](NC(=O)CNC(=O)[C@H](CO)NC(=O)[C@H](CC(C)C)NC(=O)[C@H](CC(C)C)NC(=O)CNC(=O)[C@H](C)NC(=O)[C@H](C)NC(=O)[C@H](CCCNC(=N)N)NC(=O)CNC(=O)c1ccc(NC(=O)CCCCNC(=O)CCCCNC(=O)[C@H](CCCCN)NC(=O)[C@H](Cc2ccc(O)cc2)NC(=O)[C@@H](N)Cc2c[nH]c3ccccc23)cc1)C(N)=O [compound 12] (H-WYK[Ava][Ava][4Abz]GRAAGLLSGL-NH2) , field log10 of IC50: -0.46

Record CC(C)C[C@H](NC(=O)CNC(=O)[C@H](CO)NC(=O)[C@H](CC(C)C)NC(=O)[C@H](CC(C)C)NC(=O)CNC(=O)[C@H](C)NC(=O)[C@H](C)NC(=O)[C@H](CCCNC(=N)N)NC(=O)CNC(=O)CCCCNC(=O)c1ccccc1NC(=O)CCCCNC(=O)[C@H](CCCCN)NC(=O)[C@H](Cc1ccc(O)cc1)NC(=O)[C@@H](N)Cc1c[nH]c2ccccc12)C(N)=O [compound 13] (H-WYK[Ava][2Abz][Ava]GRAAGLLSGL-NH2) , field log10 of IC50: -0.25

Record CC(C)C[C@H](NC(=O)CNC(=O)[C@H](CO)NC(=O)[C@H](CC(C)C)NC(=O)[C@H](CC(C)C)NC(=O)CNC(=O)[C@H](C)NC(=O)[C@H](C)NC(=O)[C@H](CCCNC(=N)N)NC(=O)CNC(=O)CCCCNC(=O)c1ccc(NC(=O)CCCCNC(=O)[C@H](CCCCN)NC(=O)[C@H](Cc2ccc(O)cc2)NC(=O)[C@@H](N)Cc2c[nH]c3ccccc23)cc1)C(N)=O [compound 15] (H-WYK[Ava][4Abz][Ava]GRAAGLLSGL-NH2) , field log10 of IC50: -0.40

Record CC(C)C[C@H](NC(=O)CNC(=O)[C@H](CO)NC(=O)[C@H](CC(C)C)NC(=O)[C@H](CC(C)C)NC(=O)CNC(=O)[C@H](C)NC(=O)[C@H](C)NC(=O)[C@H](CCCNC(=N)N)NC(=O)CNC(=O)CCCCNC(=O)c1cccc(NC(=O)CCCCNC(=O)[C@H](CCCCN)NC(=O)[C@H](Cc2ccc(O)cc2)NC(=O)[C@@H](N)Cc2c[nH]c3ccccc23)c1)C(N)=O [compound 14] (H-WYK[Ava][3Abz][Ava]GRAAGLLSGL-NH2) , field log10 of IC50: -0.72

Record CC(C)C[C@H](NC(=O)CNC(=O)[C@H](CO)NC(=O)[C@H](CC(C)C)NC(=O)[C@H](CC(C)C)NC(=O)CNC(=O)[C@H](C)NC(=O)[C@H](C)NC(=O)[C@H](CCCNC(=N)N)NC(=O)CNC(=O)CCCCNC(=O)CCCCNC(=O)c1ccc(NC(=O)[C@H](CCCCN)NC(=O)[C@H](Cc2ccc(O)cc2)NC(=O)[C@@H](N)Cc2c[nH]c3ccccc23)cc1)C(N)=O [compound 18] (H-WYK[4Abz][Ava][Ava]GRAAGLLSGL-NH2) , field log10 of IC50: 0.75
